Collected RP-LC retention time values appear next to each entry.
Test: gradient 5% acetonitrile 3 min, to 50% in 2 min, to 85% in 15 min, held 3 min, 100 µL/min
Details: column: Zorbax Extend-C18 2.1 x 50 mm; eluents: water / acetonitrile, 0.1% formic acid
Numeric only. Scale: s

Worked examples follow.
compound | RP-LC retention time (s)
CCOC(=O)C(C)Sc1nnc(NC(=O)C2CC2)s1 (stereo unspecified) | 708
COc1ccc(-c2nc3cccnc3n2C2CCN(C(=O)c3ccco3)C2)cc1 (stereo unspecified) | 685
Cn1c(=O)c(-c2ccc(C(=O)N3CCOCC3)cc2)nc2ccccc21 | 698

Input line: Fill blank: measured RP-LC retention time of the compound CCC(=O)Nc1ccc2c(c1)N(C(=O)c1cccs1)CCC2 is ____.
Output line: 717

Input line: Fill blank: measured RP-LC retention time of the compound O=C(Cn1c(=O)cc(C(=O)N2CCCCC2)c2ccccc21)NC1CCCC1 is ____.
Output line: 697

Input line: Fill blank: measured RP-LC retention time of the compound Cc1cnc(-c2ccccc2)n1C1CCN(S(=O)(=O)Cc2ccccc2)CC1 is ____.
Output line: 686

Input line: Fill blank: measured RP-LC retention time of the compound CCOc1cccc2c1OC1(C)CC2NC(=O)N1c1cccc(C(=O)NCc2cccs2)c1 (stereo unspecified) is ____.
Output line: 790

Input line: Fill blank: measured RP-LC retention time of the compound O=C(c1cc(=O)c(OCc2ccc(F)cc2)co1)N1CCN(c2ncccn2)CC1 is ____.
Output line: 696

Input line: Fill blank: measured RP-LC retention time of the compound O=C(Cn1ccnc1-c1ccnc(N2CCSCC2)c1)N1CCN(c2ccccc2)CC1 is ____.
Output line: 697

Input line: Fill blank: measured RP-LC retention time of the compound c1ccc2sc(C3(NCC4CC4)CCCCC3)cc2c1 is ____.
Output line: 799

Input line: Fill blank: measured RP-LC retention time of the compound Cc1ccc(C)c(NC(=O)C2CCN(S(=O)(=O)c3ccc4c(c3)NC(=O)C(C)O4)CC2)c1 (stereo unspecified) is ____.
Output line: 824

====

Assay: gradient 5% acetonitrile 3 min, to 50% in 2 min, to 85% in 15 min, held 3 min, 100 µL/min
Details: column: Zorbax Extend-C18 2.1 x 50 mm; eluents: water / acetonitrile, 0.1% formic acid
recordedMetric: RP-LC retention time
Answer as a quantity: numeral, then unit.

molecule | experimentalValue
COc1ccc(C(O)CN2CCN(c3ccccn3)CC2)cc1 (stereo not given) | 540 s

Input line: Fill blank: measured RP-LC retention time of the molecule CCOCCCN1C(=O)c2cc(-c3ccccc3)nn2CC1(C)C(=O)NCc1ccccc1 (stereo not given) is ____.
Output line: 914 s

Input line: Fill blank: measured RP-LC retention time of the molecule C[C@H](NC(=O)[C@@H]1CCCN1C(=O)[C@@H]1CCCN1C(=O)[C@@H](O)[C@H](N)Cc1ccccc1)C(N)=O is ____.
Output line: 552 s

Input line: Fill blank: measured RP-LC retention time of the molecule Cc1cc2c(SCC(=O)N3CCCc4ccccc43)ncnc2s1 is ____.
Output line: 950 s

Input line: Fill blank: measured RP-LC retention time of the molecule O=C(NCc1cccc(Br)c1)c1csc(C(=O)N2CCCC2)n1 is ____.
Output line: 850 s

====

Assay: gradient 5% acetonitrile 3 min, to 50% in 2 min, to 85% in 15 min, held 3 min, 100 µL/min
Conditions: column: Zorbax Extend-C18 2.1 x 50 mm; eluents: water / acetonitrile, 0.1% formic acid
Collected RP-LC retention time values appear next to each entry.
Numeric only. Scale: s

Input line: Fill blank: measured RP-LC retention time of the compound CS(=O)(=O)N1CCCN(C(=O)Nc2ccccc2)CCNC(=O)CC1c1ccccc1 (stereo not given) is ____.
Output line: 698

Input line: Fill blank: measured RP-LC retention time of the compound CSc1ccc(CNC(=O)Cn2cc(-c3nnco3)c3ccccc32)cc1 is ____.
Output line: 805

Input line: Fill blank: measured RP-LC retention time of the compound CC(C)c1cnc2c(c1SCc1cccnc1)c(=O)n(C)c(=O)n2C is ____.
Output line: 691

Input line: Fill blank: measured RP-LC retention time of the compound CC1CCCN(c2ccc(-c3noc(CN(C)C4CCCCC4)n3)cn2)C1 (stereo not given) is ____.
Output line: 721

Input line: Fill blank: measured RP-LC retention time of the compound COc1ccc(OC)c(Nc2c(-c3ccc(C(=O)O)cc3)nc3cnccn23)c1 is ____.
Output line: 709

====

Test: gradient 5% acetonitrile 3 min, to 50% in 2 min, to 85% in 15 min, held 3 min, 100 µL/min
Conditions: column: Zorbax Extend-C18 2.1 x 50 mm; eluents: water / acetonitrile, 0.1% formic acid
Threshold check on RP-LC retention time: at or above 700 s gives condition met, strictly below gives condition not met.

Field: example entries. Status: answers known.
compound | qualitativeLabel
CC1CCCCN1CCNC(=O)c1nnc(-c2ccc(S(=O)(=O)N(C)C)cc2)o1 (stereo not given) | condition not met
CC1CN2C=NC(N3CCN(C(=O)Nc4ccc5c(c4)CCC5)CC3)=CC2=N1 (stereo not given) | condition not met
CC(C)(C)c1ccc(OCC(=O)Nc2ccc(CC(=O)N3CCOCC3)cc2)cc1 | condition met
COc1ccc(CN2CCC([C@@H]3CNC[C@H]3CO)CC2)cc1Cn1ccnc1 | condition not met
Cc1cc(C)n(-c2nc(C)c(C(=O)N(CCO)Cc3ccccc3)s2)n1 | condition met

Input line: Check the entry O=C(CSc1ccncc1)N1CCc2cc(-c3csc(C4CC4)n3)ccc21 : does RP-LC retention time equal or exceed 700 s?
Output line: condition met

Input line: Check the entry COc1ccccc1NC(=O)N1CCc2nc(-c3ccccc3)ncc2C1 : does RP-LC retention time equal or exceed 700 s?
Output line: condition met

Input line: Check the entry Clc1cc(I)cc(Cl)c1NC1=NCCN1 : does RP-LC retention time equal or exceed 700 s?
Output line: condition not met

====

Assay: gradient 5% acetonitrile 3 min, to 50% in 2 min, to 85% in 15 min, held 3 min, 100 µL/min
Details: column: Zorbax Extend-C18 2.1 x 50 mm; eluents: water / acetonitrile, 0.1% formic acid
recordedMetric: RP-LC retention time (s)
Numeric only. Scale: s

Input line: Fill blank: measured RP-LC retention time of the compound CN(CC1CCOCC1)C(=O)Cc1ccsc1 is ____.
Output line: 691

Input line: Fill blank: measured RP-LC retention time of the compound O=C(C1CCN(c2nc3ccc(-c4ccccc4)nc3s2)CC1)N1CCCC1 is ____.
Output line: 910

Input line: Fill blank: measured RP-LC retention time of the compound CCn1ncn2cc(S(=O)(=O)Nc3ccc(F)c(F)c3)cc2c1=O is ____.
Output line: 884

Input line: Fill blank: measured RP-LC retention time of the compound O=C(C1CC1)N1CCc2sc(S(=O)(=O)NCc3ccccc3)cc2C1 is ____.
Output line: 795

Input line: Fill blank: measured RP-LC retention time of the compound COCCN1C(=O)CCc2cc(NS(=O)(=O)c3cc(OC)ccc3OC)ccc21 is ____.
Output line: 724

Input line: Fill blank: measured RP-LC retention time of the compound COc1ccc(NC(=O)c2cnc(N3CCN(C)CC3)nc2N)cc1 is ____.
Output line: 578

Input line: Fill blank: measured RP-LC retention time of the compound CC1(C(=O)NCc2ccc3c(c2)OCO3)CCN(C(=O)c2ccccc2C(F)(F)F)CC1 is ____.
Output line: 822

Input line: Fill blank: measured RP-LC retention time of the compound CN1CCc2ccccc2Cc2[nH]c3ccccc3c2CC1 is ____.
Output line: 738

Input line: Fill blank: measured RP-LC retention time of the compound CCS(=O)(=O)NCCc1csc(C)n1 is ____.
Output line: 572

Input line: Fill blank: measured RP-LC retention time of the compound Cc1cc(C)n(-c2ccc(=O)n(CC(=O)NCc3ccc4c(c3)OCO4)n2)n1 is ____.
Output line: 668

Input line: Fill blank: measured RP-LC retention time of the compound Cn1c(N2CCN(C(=O)c3ccc(F)c(Cl)c3)CC2)cc(=O)n(C)c1=O is ____.
Output line: 686

Input line: Fill blank: measured RP-LC retention time of the compound CC1CCN(c2cc(-n3cnc(C(=O)N4CCC5(CC4)OCCO5)c3)ncn2)CC1 is ____.
Output line: 834

Input line: Fill blank: measured RP-LC retention time of the compound CCCNC(=O)N1CCC2(CC1)Nc1cc(F)ccc1-n1cccc12 is ____.
Output line: 888

Input line: Fill blank: measured RP-LC retention time of the compound CN(C)Cc1cc(C(F)(F)F)ccc1C(O)(c1ccccc1)c1ccccc1 is ____.
Output line: 883

Input line: Fill blank: measured RP-LC retention time of the compound Cc1csc(-c2ccc(CNC(=O)C3CCOC3)cc2)n1 (stereo not given) is ____.
Output line: 678

Input line: Fill blank: measured RP-LC retention time of the compound C[C@@]1(C(=O)Nc2ccc(F)nc2)CCCN1c1nc(Nc2cc(C3CC3)[nH]n2)c2cccn2n1 is ____.
Output line: 946

FYI, the data here is from the METLIN SMRT retention time set (Domingo-Almenara et al. 2019).
